target: Prostaglandin G/H synthase 1 (Ovis aries, UniProt P05979)
Sequence (P05979 whole entry): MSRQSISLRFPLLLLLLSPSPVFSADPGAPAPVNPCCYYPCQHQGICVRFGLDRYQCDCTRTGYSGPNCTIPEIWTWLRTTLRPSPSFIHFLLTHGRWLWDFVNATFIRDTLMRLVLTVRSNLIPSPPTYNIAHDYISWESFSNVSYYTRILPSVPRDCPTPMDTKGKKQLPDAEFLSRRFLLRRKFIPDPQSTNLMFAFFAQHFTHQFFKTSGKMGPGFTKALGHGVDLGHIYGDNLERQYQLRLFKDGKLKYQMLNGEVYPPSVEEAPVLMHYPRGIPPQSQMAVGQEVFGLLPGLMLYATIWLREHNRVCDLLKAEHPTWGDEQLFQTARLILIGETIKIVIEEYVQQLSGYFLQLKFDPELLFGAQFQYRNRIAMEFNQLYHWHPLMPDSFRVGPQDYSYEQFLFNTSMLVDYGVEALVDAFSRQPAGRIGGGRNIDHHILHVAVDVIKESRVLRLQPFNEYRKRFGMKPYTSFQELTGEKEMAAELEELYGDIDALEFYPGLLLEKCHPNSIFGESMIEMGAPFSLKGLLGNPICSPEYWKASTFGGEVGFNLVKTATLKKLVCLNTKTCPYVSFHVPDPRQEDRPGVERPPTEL
readout_kind: IC50 (µM)
Record the value in µM, omitting the unit from your answer.

Which measured IC50 belongs to CS(=O)(=O)c1ccc(-c2nc3ccccc3c(C(=O)O)c2-c2ccccc2)cc1 , tested on Prostaglandin G/H synthase 1 (Ovis aries, UniProt P05979)?
48.1
